# MEASURED ON: CCR3 (Homo sapiens)
# Construct: endogenous in cells
# Sequence (P51677 whole entry): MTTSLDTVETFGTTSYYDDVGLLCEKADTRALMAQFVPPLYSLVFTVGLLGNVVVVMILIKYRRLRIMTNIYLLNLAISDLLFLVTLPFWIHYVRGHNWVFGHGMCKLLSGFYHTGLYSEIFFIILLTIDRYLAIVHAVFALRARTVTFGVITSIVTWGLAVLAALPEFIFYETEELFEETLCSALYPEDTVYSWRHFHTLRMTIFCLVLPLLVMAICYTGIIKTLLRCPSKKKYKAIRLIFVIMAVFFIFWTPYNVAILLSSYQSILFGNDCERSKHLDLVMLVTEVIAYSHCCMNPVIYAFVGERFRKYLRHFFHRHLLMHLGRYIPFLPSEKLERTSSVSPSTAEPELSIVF
# TEST SUMMARY: Inhibition of eotaxin-induced intracellular calcium increase in human eosinophils (Fura-2)
# CONDITION DESCRIPTION: human peripheral blood eosinophils, stimulated with eotaxin (5 ng/ml), intracellular calcium level
Below is a list of entries, each paired with its recorded IC50 value.
Just the number please, in nM, no unit attached.

Sample records with IC50:
[[record]]
structure_string = "Cc1nnc2n(CCCN3CCN(C(c4ccccc4)c4ccccc4)CC3)c(=O)c3cc(Cl)ccc3n12"
value_unit = "nM"
meas_value = 500

[[record]]
structure_string = "Cc1nnc2n(CCCN3CCN(C(c4ccccc4)c4ccccc4)CC3)c(=O)c3ccccc3n12"
value_unit = "nM"
meas_value = 300

[[record]]
structure_string = "Cc1nnc2n(CCCN3CCN(Cc4ccccc4-c4ccccc4)CC3)c(=O)c3ccccc3n12"
value_unit = "nM"
meas_value = 3600


Okay, next one:
What does the data say about its IC50? Entry: `CCCc1nnc2n(CCCN3CCN(C(c4ccccc4)c4ccccc4)CC3)c(=O)c3ccccc3n12`
1400

====

# MEASURED ON: CCR1 (Homo sapiens, UniProt P32246)
# Construct: endogenous in cells; host or cells: THP-1 (human monocytic cell line)
# Sequence (P32246 whole entry): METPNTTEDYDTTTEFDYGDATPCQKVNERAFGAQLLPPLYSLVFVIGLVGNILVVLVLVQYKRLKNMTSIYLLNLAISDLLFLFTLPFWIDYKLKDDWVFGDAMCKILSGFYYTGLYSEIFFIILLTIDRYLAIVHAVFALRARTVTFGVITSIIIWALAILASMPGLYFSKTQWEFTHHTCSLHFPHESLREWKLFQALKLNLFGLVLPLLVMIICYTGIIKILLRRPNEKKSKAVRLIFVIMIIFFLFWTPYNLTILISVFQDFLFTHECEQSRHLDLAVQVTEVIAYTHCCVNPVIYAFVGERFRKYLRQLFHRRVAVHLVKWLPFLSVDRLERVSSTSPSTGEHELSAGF
# TEST SUMMARY: Inhibition of RANTES-induced intracellular calcium increase in THP-1 cells (Fura-2)
# Assay type: cell-based
# CONDITION DESCRIPTION: human monocytic cell line THP-1, stimulated with RANTES (40 ng/ml), intracellular calcium level
pIC50: −log10 of the molar value.
Lab note: compare pIC50 against 5. Equal or greater, write 1.0. Smaller, write 0.0.

[[record]]
structure_string = "Cc1nnc2n(CCCN3CCN(C(c4ccccc4)c4ccccc4)CC3)c(=O)c3ccccc3n12"
label = 1.0


With those in mind, consider the next molecule.
Say whether `Cc1nnc2n(CCCN3CCN(C(c4ccccc4)c4ccccc4)CC3)c(=O)c3cc(Cl)ccc3n12` shows pIC50 of 5 or more.
0.0

====

Where a name gives a salt, the structure may show the parent alone.
OBSERVED PROPERTY: melting point

Sample records with melting point:
[[record]]
compound = "Cc1nnc2n(CCCN3CCCC(c4c[nH]c5ccccc45)C3)c(=O)c3ccccc3n12 (stereo not shown)"
observed_property = "melting point"
meas_value = "207 to 212 °C (dec.)"

[[record]]
compound = "Cc1nnc2n(CCCN3CCC(=C(c4ccccc4)c4ccccc4)CC3)c(=O)c3ccccc3n12"
observed_property = "melting point"
meas_value = "157 to 159 °C"

[[record]]
compound = "Cc1nnc2n(CCCCN3CCC(C(c4ccccc4)c4ccccc4)CC3)c(=O)c3ccccc3n12 (as salt: hydrochloride)"
observed_property = "melting point"
meas_value = "166.5 to 180 °C"

[[record]]
compound = "Cc1nnc2n(CCCN3CCC(C(c4ccccc4)c4ccccc4)CC3)c(=O)c3ccccc3n12 (as salt: hydrochloride)"
observed_property = "melting point"
meas_value = "172.8 to 190.5 °C"

[[record]]
compound = "Cc1nnc2n(CCCN3CCN(Cc4ccc(Cl)c(Cl)c4)CC3)c(=O)c3ccccc3n12"
observed_property = "melting point"
meas_value = "77 to 79 °C"

[[record]]
compound = "Cc1nnc2n(CCCN3CCC(c4c[nH]c5ccccc45)CC3)c(=O)c3ccccc3n12"
observed_property = "melting point"
meas_value = "207 to 209 °C (dec.)"


Okay, next one:
What does the data say about its melting point? Entry: `Cc1nnc2n(CCCN3CCN(C(c4ccccc4)c4ccccc4)CC3)c(=O)c3ccc(C(F)(F)F)cc3n12`
154 to 159.5 °C

====

Below is a list of entries, each paired with its recorded melting point value.
Structures can show the parent of a compound that is named as a salt.

What does the data say about its melting point? Entry: Cc1nnc2n(CCCN3CCN(Cc4cccc(Oc5ccccc5)c4)CC3)c(=O)c3ccccc3n12 (as salt: hydrochloride)
225 to 230.5 °C

What does the data say about its melting point? Entry: `Cc1nnc2n(CCN3CCN(C(c4ccccc4)c4ccccc4)CC3)c(=O)c3ccccc3n12`
217 to 219 °C

What does the data say about its melting point? Entry: `CCCc1nnc2n(CCCN3CCN(C(c4ccccc4)c4ccccc4)CC3)c(=O)c3ccccc3n12`
150 to 152 °C

What does the data say about its melting point? Entry: `Cc1nnc2c(CCCN3CCC(C(c4ccccc4)c4ccccc4)CC3)nc3ccccc3n12`
88 to 90 °C

What does the data say about its melting point? Entry: `Cc1nnc2n(CCCN3CCN(C(c4ccccc4)c4ccccc4)CC3)c(=O)c3ccccc3n12`
168 to 173 °C

What does the data say about its melting point? Entry: `Cc1nnc2n(-c3cccc(N4CCC(C(c5ccccc5)c5ccccc5)CC4)c3)c(=O)c3ccccc3n12`
277 to 279 °C

What does the data say about its melting point? Entry: `Cc1nnc2n(CCCN3CCN(C(c4ccccc4)c4ccccc4)CC3)c(=O)c3cc(N(C)C)ccc3n12`
189 to 191 °C

What does the data say about its melting point? Entry: `Cc1nnc2n(CCCCN3CCN(C(c4ccccc4)c4ccccc4)CC3)c(=O)c3ccccc3n12`
157 to 159 °C

What does the data say about its melting point? Entry: `CCc1nnc2n(CCCN3CCN(C(c4ccccc4)c4ccccc4)CC3)c(=O)c3ccccc3n12`
199 to 201 °C

What does the data say about its melting point? Entry: `Cc1nnc2n(CCCN3CCN(C(c4ccccc4)c4ccccc4)CC3)c(=O)c3cc(O)ccc3n12`
225 to 228 °C

What does the data say about its melting point? Entry: Cc1nnc2n(CCCN3CCN(Cc4ccc(Oc5ccccc5)cc4)CC3)c(=O)c3ccccc3n12 (as salt: hydrochloride)
229 to 237 °C

What does the data say about its melting point? Entry: `COc1ccc2c(c1)c(=O)n(CCCN1CCN(C(c3ccccc3)c3ccccc3)CC1)c1nnc(C)n21`
194 to 196 °C

What does the data say about its melting point? Entry: `Cc1nnc2n(CCCN3CCN(C(c4ccccc4)c4ccccc4)CC3)c(=O)c3cc(Cl)ccc3n12`
116 to 118 °C

What does the data say about its melting point? Entry: `COc1cc2c(=O)n(CCCN3CCN(C(c4ccccc4)c4ccccc4)CC3)c3nnc(C)n3c2cc1OC`
184 to 186 °C

What does the data say about its melting point? Entry: `Cc1nnc2n(CCCN3CCN(C4CCCCC4)CC3)c(=O)c3ccccc3n12`
118 to 120 °C

====

# MEASURED ON: CCR1 (Homo sapiens, UniProt P32246)
# Construct: endogenous in cells
# TEST SUMMARY: Inhibition of RANTES-induced intracellular calcium increase in THP-1 cells (Fura-2)
# CONDITION DESCRIPTION: human monocytic cell line THP-1, stimulated with RANTES (40 ng/ml), intracellular calcium level
OBSERVED PROPERTY: IC50 (µM)
Just the number please, in µM, no unit attached.

[[record]]
compound = "Cc1nnc2n(CCCN3CCCC(c4c[nH]c5ccccc45)C3)c(=O)c3ccccc3n12 (stereo not drawn) [Compound 5]"
meas_value = 12.9

[[record]]
compound = "Cc1nnc2n(CCCN3CCN(Cc4ccccc4-c4ccccc4)CC3)c(=O)c3ccccc3n12 [Compound 11]"
meas_value = 9.1


Okay, next one:
What does the data say about its IC50? Entry: CCCc1nnc2n(CCCN3CCN(C(c4ccccc4)c4ccccc4)CC3)c(=O)c3ccccc3n12 [Compound 28]
9.3
